Origin of measurements: patent US20240270821A1

Listed here are binders together with their documented Relative cAMP EC50.
Biological target: T1, human GIP receptor (human) (UniProt P48546)
T1 sequence (looked up): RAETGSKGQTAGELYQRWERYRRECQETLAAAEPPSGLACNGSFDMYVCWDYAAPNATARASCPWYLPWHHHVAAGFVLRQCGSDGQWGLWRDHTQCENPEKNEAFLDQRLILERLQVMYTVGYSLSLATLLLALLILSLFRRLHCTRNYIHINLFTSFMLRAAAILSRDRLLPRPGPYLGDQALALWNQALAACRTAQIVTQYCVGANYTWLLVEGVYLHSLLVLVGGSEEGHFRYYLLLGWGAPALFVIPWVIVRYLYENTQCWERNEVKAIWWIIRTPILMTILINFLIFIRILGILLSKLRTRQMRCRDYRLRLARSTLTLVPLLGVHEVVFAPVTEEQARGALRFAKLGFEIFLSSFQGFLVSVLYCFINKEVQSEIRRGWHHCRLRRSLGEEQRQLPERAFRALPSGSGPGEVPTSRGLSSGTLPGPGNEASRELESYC
Test: cell-based or functional assay
Non-standard residues stand in square brackets, D forms with d. No end group written: not given here. αMePhe(2-F) = C[C@](N)(Cc1ccccc1F)C(=O)O; Aib = CC(C)(N)C(=O)O
Form entry: value (nM) — number only.

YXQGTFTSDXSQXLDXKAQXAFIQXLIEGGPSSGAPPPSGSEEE (non-natural residues (Aib, 4Pal, Orn, Me4Pal, αMeY); lipidated K; amide; synthetic construct; SITE 2: note = 2-Aminoisobutyric Acid; SITE 10: note = 3-(4-Pyridyl)-L-alanine; SITE 13: note = alpha-methyl-leucine; SITE 16: note = L-ornithine; SITE 17: note = Lysine is chemically modified through conjugation of the epsilon-amino group of the Lysine side chain with D-Glutami) [Example 1076]    0.174

Query: If you can, please state the reported Relative cAMP EC50 value of YXQGTFTSDYSIXLDKKAAXAFIEYLLEGGPSSGEPPPSEG (synthetic construct; SITE 2: note = 2-Aminoisobutyric Acid; SITE 13: note = alpha-methyl-leucine; SITE 17: note = Lysine is chemically modified through conjugation of the epsilon-amino group of the Lysine side chain with (2-[2-(2-Amino-ethoxy)-ethoxy]-acetyl)2-(gamma-Glu)-CO-(CH2 )18-CO2H; SITE 20:) [Example 294] .
Reply: 0.318

Query: If you can, please state the reported Relative cAMP EC50 value of YXQGTFTSDFSXXLDKKAQXAFIEYLLEXGPSSGAPPPSGE (synthetic construct; SITE 2: note = 2-Aminoisobutyric Acid; SITE 12: note = L-ornithine; SITE 13: note = alpha-methyl-leucine; SITE 17: note = Lysine is chemically modified through conjugation of the epsilon-amino group of the Lysine side chain with (2-[2-(2-Amino-ethoxy)-ethoxy]-acetyl)-(gamma-Glu)) [Example 110] .
Reply: 0.102

Query: If you can, please state the reported Relative cAMP EC50 value of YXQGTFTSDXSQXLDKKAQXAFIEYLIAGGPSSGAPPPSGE (Aib, 4Pal, αMeL, Me4Pal; acylated K; C-terminal amide; synthetic construct; SITE 2: note = 2-Aminoisobutyric Acid; SITE 10: note = 3-(4-Pyridyl)-L-alanine; SITE 13: note = alpha-methyl-leucine; SITE 17: note = Lysine is chemically modified through conjugation of the epsilon-amino group of the Lysine side chain with (Glu)-(gamma-Glu)-CO-(CH2)16-CO2H; SIT) [Example 1086] .
Reply: 0.117

Query: If you can, please state the reported Relative cAMP EC50 value of Y[Aib]QGT[αMePhe(2-F)]TSDYSILLDKQAQKAFIEYLLEGGPSSGEPPPSEG-NH2 (not fully specified (residue 20)) [Example 345] .
Reply: 0.0377

Query: If you can, please state the reported Relative cAMP EC50 value of YXQGTFTSDFSXXLDKKAQXAFIEYLLEAGPSSGXPPPSGS (synthetic construct; SITE 2: note = 2-Aminoisobutyric Acid; SITE 12: note = L-ornithine; SITE 13: note = alpha-methyl-leucine; SITE 17: note = Lysine is chemically modified through conjugation of the epsilon-amino group of the Lysine side chain with (2-[2-(2-Amino-ethoxy)-ethoxy]-acetyl)2-(gamma-Glu)) [Example 254] .
Reply: 0.121
